Test system: SF-295 CNS
Test: NCI tumour cell line growth inhibition, 48 h; in the data active = GI50 below about 0.43 µM; inactive = the rest
Parameter call: string, one of Y = active, N = inactive

Solved entries (count: 3):
CC(O)c1cccc(NCc2c3ccccc3c(=O)n3c2oc2ccccc23)c1 (stereo unspecified) = N
O=C1c2ccccc2-c2c1c1ccccc1c(=O)n2CCCNCCCn1ccnc1 = Y
Nc1c(C(=O)c2ccc(Cl)cc2)sc(Nc2ccccc2)c1-c1nc2ccccc2s1 = N

QUERY: Which outcome was assigned to ClCc1cccc(Cn2cnc3c(NC45CC6CC(CC(C6)C4)C5)ncnc32)c1 in this test?
RESULT: N

QUERY: Which outcome was assigned to O=C1Nc2ccc(C(=O)c3ccco3)cc2/C1=C/c1cc(Cl)c(O)c(Cl)c1 in this test?
RESULT: N

---

Test system: KM20L2 colon
Assay: NCI tumour cell line growth inhibition, 48 h
attribute.measured: TGI

CC1=C(C(=O)Nc2ccccc2C)C(c2ccc(Cl)c(Cl)c2)C(C(=O)Nc2ccccc2C)=C(C)N1 = 34.8 µM
COC(=O)C(C)NP(=O)(N1CC1)N1CC1 (centres undefined) = > 100 µM
CC(=O)c1cccc(N2COC(C)(C)c3nc4ccccc4n3C2)c1 = > 100 µM
COc1ccccc1N1C(=O)/C(=C/c2ccc(N(CCC#N)CCC#N)cc2C)N=C1c1cc([N+](=O)[O-])ccc1Cl = > 100 µM
Cc1[nH]c2ccccc2c1C1Cc2ccccc2N1C(=O)/C=C\C(=O)O (centres undefined) = > 100 µM
O=C(/C=C/c1ccc([N+](=O)[O-])o1)N1CCN(Cc2ccccc2)CC1 = 24.3 µM
CCOC(=O)NC(=O)c1cn(CC(=O)NCC(=O)NCC(=O)NCCCN2CCN(CCCNC(=O)CNC(=O)CNC(=O)Cn3cc(C(=O)NC(=O)OCC)c(=O)[nH]c3=O)CC2)c(=O)[nH]c1=O = > 100 µM
C=CC1(C(=O)O)CCC(C(C)(C)C)CC1 (centres undefined) = > 100 µM

COC(=O)c1s/c(=N\C(=S)N(C)C)n(-c2ccccc2)c1C(=O)OC has a reported TGI of > 100 µM

CC(=O)OCC1OC(N2C(=O)C(=O)c3cc(C)ccc32)C(OC(C)=O)C(OC(C)=O)C1OC(C)=O (centres undefined) has a reported TGI of > 100 µM

CCNC(=O)CCN(C(=O)O)S(=O)(=O)c1ccc(NC(=O)c2ccccc2)cc1 has a reported TGI of > 100 µM

COc1ccc([N+]2=NC(c3ccc([N+](=O)[O-])cc3)=NN(c3ccccc3)C2)cc1 has a reported TGI of > 100 µM

COc1cc2c[n+](C)c3c4cc5c(cc4ccc3c2cc1OC)OCO5 has a reported TGI of 3.47 µM

O=S(=O)(N/N=C/c1ccc(/C=N/NS(=O)(=O)c2ccccc2)cc1)c1ccccc1 has a reported TGI of > 100 µM

---

Each entry below carries its reported TGI.
Tested on: MOLT-4 leukemia
Assay: NCI tumour cell line growth inhibition, 48 h
Number only, in µM; omit the unit.

CCN1CCN(C(=O)[C@]23CC[C@@H](C)[C@H](C)[C@@H]2C2=CC[C@@H]4[C@@]5(C)C/C(=C/c6ccncc6)C(=O)C(C)(C)[C@@H]5CC[C@@]4(C)[C@]2(C)CC3)CC1 = 4.57
COC(=O)C(Cc1c[nH]c2ccccc12)N=C1Nc2ccncc2S(=O)(=O)N1c1ccccc1 (configuration not stated) = 35.1
CN[C@@H](C)C(=O)N[C@H](C(=O)N1CCC[C@H]1C(=O)N[C@H]1c2ccccc2C[C@H]1OCC#CC#CCO[C@@H]1Cc2ccccc2[C@@H]1NC(=O)[C@@H]1CCCN1C(=O)[C@@H](NC(=O)[C@H](C)NC)C1CCCCC1)C1CCCCC1 = 4.57
COC(=O)c1cc2c(cc1Cl)SC(N(N(C)C)S(=O)(=O)c1ccc(Br)s1)=NS2(=O)=O = 36.1

COCC(N=CN1CCCc2ccccc2[C@@H]1CCCCl)C(C)(C)C (some centres not stated) has a reported TGI of 15.5
